Measured IC50 accompanies every entry in the list below.
biological target: PPARγ (Homo sapiens, UniProt P37231)
Sequence (P37231 whole entry, species assumed): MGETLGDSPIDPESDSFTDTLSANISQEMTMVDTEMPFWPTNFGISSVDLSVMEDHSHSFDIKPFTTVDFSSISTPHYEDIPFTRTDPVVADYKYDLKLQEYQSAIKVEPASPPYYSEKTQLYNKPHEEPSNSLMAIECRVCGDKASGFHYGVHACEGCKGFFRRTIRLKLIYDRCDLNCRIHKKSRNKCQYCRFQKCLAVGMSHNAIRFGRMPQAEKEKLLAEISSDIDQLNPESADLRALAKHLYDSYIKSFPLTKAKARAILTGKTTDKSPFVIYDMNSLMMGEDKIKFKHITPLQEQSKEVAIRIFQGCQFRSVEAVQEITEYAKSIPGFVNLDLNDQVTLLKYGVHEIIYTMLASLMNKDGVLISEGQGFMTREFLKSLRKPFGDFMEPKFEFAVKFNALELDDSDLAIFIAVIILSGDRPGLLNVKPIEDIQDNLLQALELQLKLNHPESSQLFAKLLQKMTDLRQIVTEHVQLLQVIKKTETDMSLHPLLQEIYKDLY

Example molecules with recorded IC50:
Cc1cc(Sc2ccc(S(=O)(=O)N3CCCCC3)cc2)nnc1NS(=O)(=O)c1ccc(C(F)(F)F)cc1Cl    < 10000 nM
O=C(c1cc(NS(=O)(=O)c2ccc(C(F)(F)F)cc2Cl)ncc1Sc1ccc(S(=O)(=O)N2CCOCC2)cc1)C1CC1    < 1000 nM

Turning to the following molecule.
Request: // lookup IC50 for CCCCc1nc(NS(=O)(=O)c2ccc(Cl)cc2Cl)ccc1Sc1ccc(S(=O)(=O)N2CCOCC2)cc1
Response: < 1000 nM
